System: Penicillium citrinum
Test: Antifungal activity against Penicillium citrinum assessed as reduction in fungal cell growth incubated for 48 hrs by serial dilution method
Format: functional
The source made the active and inactive calls. No cut-off for these calls is given here.

compound	MIC
CCCCCC(=O)N1CCC2(Cc3ccccc3C)c3ccccc3N(Cc3ccccc3C)C12 (stereo not given)	250 µg/mL
CCCCCCCC(=O)N1CCCC2(O)c3ccccc3N(C)C12 (stereo not given)	inactive
Cc1ccccc1CN1c2ccccc2C2(Cc3ccccc3C)CCN(C(=O)c3ccccc3C)C12 (stereo not given)	250 µg/mL
Cc1ccccc1CN1c2ccccc2C2(Cc3ccccc3C)CCN(S(=O)(=O)c3ccccc3)C12 (stereo not given)	inactive
CN1c2ccccc2C2(O)CCCN(C(=O)c3ccccc3F)C12 (stereo not given)	inactive
Cc1cccc(CN2c3ccccc3C3(Cc4cccc(C)c4)CCN(C(=O)CCc4ccccc4)C23)c1 (stereo not given)	inactive
CCCCCCCC(=O)N1CCC2(Cc3cccc(C)c3)c3ccccc3N(Cc3cccc(C)c3)C12 (stereo not given)	250 µg/mL
CCCCCCC(=O)N1CCC2(Cc3cccc(C)c3)c3ccccc3N(Cc3cccc(C)c3)C12 (stereo not given)	250 µg/mL
Cc1ccc(C(=O)N2CCCC3(O)c4ccccc4N(C)C23)cc1 (stereo not given)	inactive
CCC(=O)N1CCC2(Cc3cccc(C)c3)c3ccccc3N(Cc3cccc(C)c3)C12 (stereo not given)	inactive
Cc1ccc(S(=O)(=O)N2CCC3(Cc4ccccc4C)c4ccccc4N(Cc4ccccc4C)C23)cc1 (stereo not given)	inactive
N#Cc1c(Cl)c(Cl)c(Cl)c(C#N)c1Cl [CHLOROTHALONIL]	15.6 µg/mL
Cc1ccccc1CN1c2ccccc2C2(Cc3ccccc3C)CCN(C(=O)COc3ccccc3)C12 (stereo not given)	125 µg/mL
COc1ccc(C(=O)N2CCC3(Cc4ccccc4C)c4ccccc4N(Cc4ccccc4C)C23)cc1 (stereo not given)	inactive
CCCC(=O)N1CCC2(Cc3cccc(C)c3)c3ccccc3N(Cc3cccc(C)c3)C12 (stereo not given)	inactive
CCCCC(=O)N1CCCC2(O)c3ccccc3N(C)C12 (stereo not given)	inactive
Cc1cccc(CN2c3ccccc3C3(Cc4cccc(C)c4)CCN(C(=O)c4ccccc4)C23)c1 (stereo not given)	250 µg/mL
CCCCC(=O)N1CCC2(Cc3cccc(C)c3)c3ccccc3N(Cc3cccc(C)c3)C12 (stereo not given)	250 µg/mL
CN1c2ccccc2C2(O)CCCN(C(=O)c3ccccc3)C12 (stereo not given)	inactive
CN1c2ccccc2C2(O)CCCN(C(=O)c3ccc(F)cc3)C12 (stereo not given)	250 µg/mL

The reported measurements were obtained from ChEMBL document CHEMBL4304804.
